Consider the following compounds; for each one, report its percentage inhibition against Ebola peptide.
target: UniProtKB P07711; format: biochemical; set-up: human cathepsin L purified from human liver (Sigma Aldrich); purchased Sigma Aldrich; host or cells: human liver (tissue-purified)
Sequence (P07711 114-333): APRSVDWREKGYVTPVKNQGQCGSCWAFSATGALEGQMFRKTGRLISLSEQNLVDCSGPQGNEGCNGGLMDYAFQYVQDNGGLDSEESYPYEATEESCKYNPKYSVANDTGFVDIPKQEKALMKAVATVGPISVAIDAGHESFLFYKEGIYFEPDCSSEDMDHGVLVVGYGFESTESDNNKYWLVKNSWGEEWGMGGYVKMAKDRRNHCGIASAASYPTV
Give the value in % but do not write % after it.

Any idea what percentage inhibition against Ebola peptide was measured for `O=C(Nc1ccc2c(c1)OCO2)c1cc(-c2cccnc2)nc2ccc(Cl)cc12` ?
55

Any idea what percentage inhibition against Ebola peptide was measured for `N#Cc1ccc(NC(=O)Nc2ccc(Cl)cc2)cc1` ?
35

Any idea what percentage inhibition against Ebola peptide was measured for `O=c1[nH]c2ccc(S(=O)(=O)Nc3ccc(Cl)c(Cl)c3)cc2o1` ?
83.8

Any idea what percentage inhibition against Ebola peptide was measured for `N#CSc1ccc(NC(=O)CSc2nc3ccccc3[nH]2)cc1` ?
34

Any idea what percentage inhibition against Ebola peptide was measured for `Cc1c(C#N)c2ccccc2n1CC(=O)NCc1ccc2c(c1)OCO2` ?
48

Any idea what percentage inhibition against Ebola peptide was measured for Cl.c1ccc(CNC2CCCc3c2[nH]c2ccc(-c4ccccc4)cc32)cc1 (stereo not drawn) ?
75.7

Any idea what percentage inhibition against Ebola peptide was measured for `O=C(Nc1cccc(C(F)(F)F)c1)Nc1ccc(Cl)c(Cl)c1` ?
77

Any idea what percentage inhibition against Ebola peptide was measured for `Cc1cnn(CCCNC(=O)c2cc(-c3cccnc3)nc3ccc(Cl)cc23)c1` ?
34.8

Any idea what percentage inhibition against Ebola peptide was measured for `COC(=O)CN(C#N)c1nc(NC(C)C)nc(NC(C)C)n1` ?
81.3

Any idea what percentage inhibition against Ebola peptide was measured for `O=C(Nc1nc(-c2ccccc2)cs1)c1cc(-n2cnnc2)ccc1Cl` ?
20

Any idea what percentage inhibition against Ebola peptide was measured for `O=C(Nc1ccc(S(=O)(=O)N2CCOCC2)cc1)Nc1ccc(F)c(Cl)c1` ?
64.8

Any idea what percentage inhibition against Ebola peptide was measured for `O=C(Nc1ccc(F)c(Cl)c1)Nc1nnc(C(F)(F)F)s1` ?
49.1

###

Consider the following molecules; for each one, report its Inhibition of cleavage of Nipah peptide by Cathepsin-L.
target: UniProtKB P07711; type: biochemical; parameters: human cathepsin L purified from human liver (Sigma Aldrich); purchased Sigma Aldrich; host or cells: human liver (tissue-purified)
Give the value in % but do not write % after it.

Any idea what Inhibition of cleavage of Nipah peptide by Cathepsin-L was measured for Nc1ccc2[nH]c3ccccc3c2c1 [Compound 5172420] ?
55.68

Any idea what Inhibition of cleavage of Nipah peptide by Cathepsin-L was measured for O=C(Nc1cccc(C(F)(F)F)c1)Nc1ccc(Cl)c(Cl)c1 [Compound 5182554] ?
44

Any idea what Inhibition of cleavage of Nipah peptide by Cathepsin-L was measured for CN(C)c1ccc(C(O)(c2ccc(N(C)C)cc2)c2ccc(N(C)C)cc2)cc1 [Compound 5152606] ?
121.65

Any idea what Inhibition of cleavage of Nipah peptide by Cathepsin-L was measured for N#CSc1ccc(NC(=O)CSc2nc3ccccc3[nH]2)cc1 [Compound 6572698] ?
40.7

Any idea what Inhibition of cleavage of Nipah peptide by Cathepsin-L was measured for Cl.c1ccc(CNC2CCCc3c2[nH]c2ccc(-c4ccccc4)cc32)cc1 (centres unmarked) [Compound 5219666] ?
90.6

###

target: UniProt P07711; type: biochemical; design: human cathepsin L purified from human liver (Sigma Aldrich); purchased Sigma Aldrich; host or cells: human liver (tissue-purified)
TEST READOUT: percentage inhibition against human Pro-NPY peptide (%)
Give the value in % but do not write % after it.

Any idea what percentage inhibition against human Pro-NPY peptide was measured for O=C(Nc1ccc(F)c(Cl)c1)Nc1nnc(C(F)(F)F)s1 [Compound 7940158] ?
14.9

Any idea what percentage inhibition against human Pro-NPY peptide was measured for Cc1cnn(CCCNC(=O)c2cc(-c3cccnc3)nc3ccc(Cl)cc23)c1 [Compound 7923236] ?
10.1

Any idea what percentage inhibition against human Pro-NPY peptide was measured for COC(=O)CN(C#N)c1nc(NC(C)C)nc(NC(C)C)n1 [Compound 5705213] ?
20

Any idea what percentage inhibition against human Pro-NPY peptide was measured for Cc1c(C#N)c2ccccc2n1CC(=O)NCc1ccc2c(c1)OCO2 [Compound 6874634] ?
13.4

Any idea what percentage inhibition against human Pro-NPY peptide was measured for N#Cc1ccc(NC(=O)Nc2ccc(Cl)cc2)cc1 [Compound 7910528, 1-(4-chlorophenyl)-3-(4-cyanophenyl)urea] ?
6.5

Any idea what percentage inhibition against human Pro-NPY peptide was measured for N#CSc1ccc(NC(=O)CSc2nc3ccccc3[nH]2)cc1 [Compound 6572698] ?
14.7

Any idea what percentage inhibition against human Pro-NPY peptide was measured for O=C(Nc1ccc(S(=O)(=O)N2CCOCC2)cc1)Nc1ccc(F)c(Cl)c1 [Compound 7798500] ?
24.6

Any idea what percentage inhibition against human Pro-NPY peptide was measured for O=c1[nH]c2ccc(S(=O)(=O)Nc3ccc(Cl)c(Cl)c3)cc2o1 [Compound 7914021] ?
21.9
